target: human IL-6 (human, UniProt P05231 30-212); assay: SPR Biacore, supernatant, Protein A capture, 37 C
Sequence (P05231 30-212 limits assumed): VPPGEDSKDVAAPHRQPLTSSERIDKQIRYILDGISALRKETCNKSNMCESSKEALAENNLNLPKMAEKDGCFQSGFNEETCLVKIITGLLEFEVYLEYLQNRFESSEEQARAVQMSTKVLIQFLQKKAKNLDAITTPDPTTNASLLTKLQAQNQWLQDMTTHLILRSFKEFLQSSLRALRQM
recorded.metric: kon (M⁻¹ s⁻¹)
The figure you give is taken to be in M⁻¹ s⁻¹; do not add the unit.

// worked examples, kon included
binder | kon / M⁻¹ s⁻¹
Anti-IL-6 antibody, heavy chain S35H, G66D, Q99F / light chain WT (antibody, IgG1, V domains shown, IgG1; variable domains only) VH: EVQLVESGGGLVQPGGSLRLSCAASGFTFSPFAMHWVRQAPGKGLEWVAKISPGGSWTYYSDTVTDRFTFSLDTSKSTAYLQMNSLRAEDTAVYYCARFLWGYYALDIWGQGTLVTVSS VL: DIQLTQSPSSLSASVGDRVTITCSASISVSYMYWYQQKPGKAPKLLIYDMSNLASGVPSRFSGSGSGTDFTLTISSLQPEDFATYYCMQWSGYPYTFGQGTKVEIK | 489000
Anti-IL-6 antibody, heavy chain S35H, G66D, L100E / light chain M32L, M50D, N52S, M88Q (antibody, IgG1, V domains shown, IgG1; variable domains only; VL is variant III) VH: EVQLVESGGGLVQPGGSLRLSCAASGFTFSPFAMHWVRQAPGKGLEWVAKISPGGSWTYYSDTVTDRFTFSLDTSKSTAYLQMNSLRAEDTAVYYCARQEWGYYALDIWGQGTLVTVSS VL: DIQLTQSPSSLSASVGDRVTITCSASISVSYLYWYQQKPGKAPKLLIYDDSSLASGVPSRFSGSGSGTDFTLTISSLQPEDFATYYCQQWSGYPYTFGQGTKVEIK | 2.05e+06
Anti-IL-6 antibody, heavy chain S35H, G66D, Q99P / light chain M32L, M50D, N52S, M88Q (antibody, IgG1, V domains shown, IgG1; variable domains only; VL is variant III) VH: EVQLVESGGGLVQPGGSLRLSCAASGFTFSPFAMHWVRQAPGKGLEWVAKISPGGSWTYYSDTVTDRFTFSLDTSKSTAYLQMNSLRAEDTAVYYCARPLWGYYALDIWGQGTLVTVSS VL: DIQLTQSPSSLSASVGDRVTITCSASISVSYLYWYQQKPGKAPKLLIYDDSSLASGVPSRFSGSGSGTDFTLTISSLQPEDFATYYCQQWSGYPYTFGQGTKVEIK | 1.25e+06

What value of kon has been reported for the following binder? Anti-IL-6 antibody, heavy chain S35H, G66D, Q99K / light chain WT (antibody, IgG1, V domains shown, IgG1; variable domains only) VH: EVQLVESGGGLVQPGGSLRLSCAASGFTFSPFAMHWVRQAPGKGLEWVAKISPGGSWTYYSDTVTDRFTFSLDTSKSTAYLQMNSLRAEDTAVYYCARKLWGYYALDIWGQGTLVTVSS VL: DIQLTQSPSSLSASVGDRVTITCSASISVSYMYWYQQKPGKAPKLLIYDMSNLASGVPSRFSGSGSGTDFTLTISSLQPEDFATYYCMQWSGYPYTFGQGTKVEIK
220000

Now the binder Anti-IL-6 antibody, heavy chain S35H, G66D, L100V / light chain M32L, M50D, N52S, M88Q (antibody, IgG1, V domains shown, IgG1; variable domains only; VL is variant III) VH: EVQLVESGGGLVQPGGSLRLSCAASGFTFSPFAMHWVRQAPGKGLEWVAKISPGGSWTYYSDTVTDRFTFSLDTSKSTAYLQMNSLRAEDTAVYYCARQVWGYYALDIWGQGTLVTVSS VL: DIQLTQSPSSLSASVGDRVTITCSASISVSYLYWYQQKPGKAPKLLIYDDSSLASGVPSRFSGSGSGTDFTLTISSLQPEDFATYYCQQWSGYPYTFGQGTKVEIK
5.01e+06

What about Anti-IL-6 antibody, heavy chain S35H, G66D, Q99L / light chain M32L, M50D, N52S, M88Q (antibody, IgG1, V domains shown, IgG1; variable domains only; VL is variant III) VH: EVQLVESGGGLVQPGGSLRLSCAASGFTFSPFAMHWVRQAPGKGLEWVAKISPGGSWTYYSDTVTDRFTFSLDTSKSTAYLQMNSLRAEDTAVYYCARLLWGYYALDIWGQGTLVTVSS VL: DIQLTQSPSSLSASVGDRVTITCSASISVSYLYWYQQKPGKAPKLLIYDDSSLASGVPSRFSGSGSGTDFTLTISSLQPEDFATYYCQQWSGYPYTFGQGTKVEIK ?
1.3e+06
